test description: Selectivity index, ratio of IC50 for cytotoxicity against mouse BALB/3T3 cells to IC50 for antiproliferative activity against human A549 cells
Assay type: toxicity, cell-based
assay setup: BALB/3T3 cells and A549 cells, read-out: Ratio IC50
Overview of reported selectivity ratio across a group of compounds:
# respond with the number and nothing more

>  <compound structure>
CC[C@@H](C(=O)[C@@H](C)[C@@H](O)[C@H](C)CCc1ccc(C)c(O)c1C(N)=O)[C@H]1O[C@](CC)([C@H]2CC[C@](O)(CC)[C@H](C)O2)C[C@@H]1C

>  <readout value>
1.9

$$$$

// moving on: another record for selectivity ratio
Challenge: Given the entry "CC[C@@H](C(=O)[C@@H](C)[C@@H](O)[C@H](C)CCc1ccc(C)c(O)c1C(=O)NCCNC(=O)c1c(CC[C@@H](C)[C@H](O)[C@H](C)C(=O)[C@H](CC)[C@H]2O[C@](CC)([C@H]3CC[C@](O)(CC)[C@H](C)O3)C[C@@H]2C)ccc(C)c1O)[C@H]1O[C@](CC)([C@H]2CC[C@](O)(CC)[C@H](C)O2)C[C@@H]1C" , report its measured selectivity ratio.
Response given: 2.3

* * *

test description: Selectivity index, ratio of IC50 for cytotoxicity against human HaCaT cells to IC50 for antiproliferative activity against human SW480 cells by MTT assay
Type: toxicity, cell-based
assay setup: HaCaT cells and SW480 cells, read-out: Ratio IC50
experimental endpoint: selectivity ratio
# respond with the number and nothing more

Challenge: Given the entry "CC[C@@H](C(=O)[C@@H](C)[C@@H](O)[C@H](C)CCc1ccc(C)c(O)c1C(=O)OCCC[P+](c1ccccc1)(c1ccccc1)c1ccccc1)[C@H]1O[C@](CC)([C@H]2CC[C@](O)(CC)[C@H](C)O2)C[C@@H]1C" , report its measured selectivity ratio.
Response given: 2.3

* * *

test description: Selectivity index, ratio of IC50 for cytotoxicity against mouse BALB/3T3 cells to IC50 for antiproliferative activity against human LoVo/DX cells
Assay type: toxicity, cell-based
assay setup: BALB/3T3 cells and LoVo/DX cells, read-out: Ratio IC50
One threshold, 4, splits the recorded selectivity ratio values: lower ones are met, equal or higher ones are not met.

Use the examples below as a reference point.
>  <compound>
C#CCNC(=O)c1c(CC[C@@H](C)[C@H](O)[C@H](C)C(=O)[C@H](CC)[C@H]2O[C@](CC)([C@H]3CC[C@](O)(CC)[C@H](C)O3)C[C@@H]2C)ccc(C)c1O

>  <assigned class>
met

$$$$
>  <compound>
CC[C@@H](C(=O)[C@@H](C)[C@@H](O)[C@H](C)CCc1ccc(C)c(O)c1C(=O)NCc1ccc([N+](=O)[O-])cc1)[C@H]1O[C@](CC)([C@H]2CC[C@](O)(CC)[C@H](C)O2)C[C@@H]1C

>  <assigned class>
not met

$$$$
>  <compound>
CCCCCCCCN(CCCCCCCC)C(=O)c1c(CC[C@@H](C)[C@H](O)[C@H](C)C(=O)[C@H](CC)[C@H]2O[C@](CC)([C@H]3CC[C@](O)(CC)[C@H](C)O3)C[C@@H]2C)ccc(C)c1O

>  <assigned class>
met

$$$$
>  <compound>
CC[C@@H](C(=O)[C@@H](C)[C@@H](O)[C@H](C)CCc1ccc(C)c(O)c1C(=O)NCCN)[C@H]1O[C@](CC)([C@H]2CC[C@](O)(CC)[C@H](C)O2)C[C@@H]1C

>  <assigned class>
met

$$$$
>  <compound>
CCCCNC(=O)c1c(CC[C@@H](C)[C@H](O)[C@H](C)C(=O)[C@H](CC)[C@H]2O[C@](CC)([C@H]3CC[C@](O)(CC)[C@H](C)O3)C[C@@H]2C)ccc(C)c1O

>  <assigned class>
not met

$$$$

Challenge: Consider the compound "CC[C@@H](C(=O)[C@@H](C)[C@@H](O)[C@H](C)CCc1ccc(C)c(O)c1C(=O)NCCCCCCNC(=O)c1c(CC[C@@H](C)[C@H](O)[C@H](C)C(=O)[C@H](CC)[C@H]2O[C@](CC)([C@H]3CC[C@](O)(CC)[C@H](C)O3)C[C@@H]2C)ccc(C)c1O)[C@H]1O[C@](CC)([C@H]2CC[C@](O)(CC)[C@H](C)O2)C[C@@H]1C" . Is its selectivity ratio strictly less than 4?
Response given: met

Challenge: How about "CC[C@@H](C(=O)[C@@H](C)[C@@H](O)[C@H](C)CCc1ccc(C)c(O)c1C(=O)NCc1ccccc1)[C@H]1O[C@](CC)([C@H]2CC[C@](O)(CC)[C@H](C)O2)C[C@@H]1C" ?
Response given: not met

Challenge: How about "CC[C@@H](C(=O)[C@@H](C)[C@@H](O)[C@H](C)CCc1ccc(C)c(O)c1C(=O)ON1C(=O)CCC1=O)[C@H]1O[C@](CC)([C@H]2CC[C@](O)(CC)[C@H](C)O2)C[C@@H]1C" ?
Response given: met

Challenge: How about "CC[C@@H](C(=O)[C@@H](C)[C@@H](O)[C@H](C)CCc1ccc(C)c(O)c1C(=O)N(Cc1ccccc1)Cc1ccccc1)[C@H]1O[C@](CC)([C@H]2CC[C@](O)(CC)[C@H](C)O2)C[C@@H]1C" ?
Response given: not met

Challenge: How about "CC[C@@H](C(=O)[C@@H](C)[C@@H](O)[C@H](C)CCc1ccc(C)c(O)c1C(=O)NCCNC(=O)c1c(CC[C@@H](C)[C@H](O)[C@H](C)C(=O)[C@H](CC)[C@H]2O[C@](CC)([C@H]3CC[C@](O)(CC)[C@H](C)O3)C[C@@H]2C)ccc(C)c1O)[C@H]1O[C@](CC)([C@H]2CC[C@](O)(CC)[C@H](C)O2)C[C@@H]1C" ?
Response given: met

Challenge: How about CC[C@@H](C(=O)[C@@H](C)[C@@H](O)[C@H](C)CCc1ccc(C)c(O)c1C(=O)O)[C@H]1O[C@](CC)([C@H]2CC[C@](O)(CC)[C@H](C)O2)C[C@@H]1C [LASALOCID] ?
Response given: not met

Challenge: How about "C=CCNC(=O)c1c(CC[C@@H](C)[C@H](O)[C@H](C)C(=O)[C@H](CC)[C@H]2O[C@](CC)([C@H]3CC[C@](O)(CC)[C@H](C)O3)C[C@@H]2C)ccc(C)c1O" ?
Response given: met

Challenge: How about "CC[C@@H](C(=O)[C@@H](C)[C@@H](O)[C@H](C)CCc1ccc(C)c(O)c1C(N)=O)[C@H]1O[C@](CC)([C@H]2CC[C@](O)(CC)[C@H](C)O2)C[C@@H]1C" ?
Response given: not met

This collection of values is drawn from ChEMBL document CHEMBL6087430.
